The values you see were collected from the RNAGym collection of RNA variant scans (doi:10.1021/acssynbio.7b00057).

B1: Pistol ribozyme (parent)
chain: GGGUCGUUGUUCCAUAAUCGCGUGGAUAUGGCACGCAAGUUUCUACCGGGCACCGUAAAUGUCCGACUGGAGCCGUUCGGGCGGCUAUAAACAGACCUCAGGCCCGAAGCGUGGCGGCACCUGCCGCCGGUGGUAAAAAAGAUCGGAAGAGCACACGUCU

- Variants of: B1
- method.summary: aptazyme ON/OFF ratio, guanine; higher = stronger switching; co-transcriptional cleavage with and without guanine
aptazyme ON/OFF ratio for assorted variants

Some variants with recorded aptazyme ON/OFF ratio:
INSERT INTO results (mutation_label, observed_result) VALUES
  ('U7C U10G U11A C12U C13A', 1.19),
  ('U7G U8G U11A C13U', 1.24),
  ('U7A U8C G9A U10G C12A C13U', 1.19),
  ('U7A U8G U10C U11C C12U', 1.53),
  ('U8G G9U U10A C12U', 1.11);

I would be grateful if you could share the reported aptazyme ON/OFF ratio for U7G U10G U11G C13A .
1.16

Try this variant next: U7G G9C U10A U11A C12G C13A
1.14
